- assay_notes: NCI Yeast Anticancer Drug Screen. Data for the mec2-1 strain (AID 157)
- test_parameters: S. cerevisiae mec2-1 strain, at 5.0 µM (retest, dose inferred, filed as 0.5), stronger effect = higher value
This is part of a sample that, as a whole, favours compounds with a hit. Of some 79,000 tested, about 15% had one in any assay.

molecule: c1ccc(N/N=C(/CC/C(=N\Nc2ccccc2)c2ccccc2)c2ccccc2)cc1
readout_unit: %
growth inhibition: 4

molecule: O=C1OC2(Cc3ccccc31)c1ccccc1-c1ccccc12
readout_unit: %
growth inhibition: -4

molecule: Cc1ccc(/C=C2\CCCc3ccccc3C2=O)cc1
readout_unit: %
growth inhibition: 7

molecule: COc1ccc(C2Oc3c(cccc3OC)C=C2[N+](=O)[O-])cc1 (configuration not stated)
readout_unit: %
growth inhibition: 23

molecule: COC(=O)c1[nH]cnc1/N=N/N(C)C
readout_unit: %
growth inhibition: 99

molecule: COc1ccc(NC(=O)CCC(NS(=O)(=O)c2ccc(C)cc2)C(=O)O)cc1 (configuration not stated)
readout_unit: %
growth inhibition: -4

molecule: CSc1nc(=S)c2[nH]c(C)nc2[nH]1
readout_unit: %
growth inhibition: -2

molecule: CCN1/C(=C\c2cc[n+](CC)c3ccccc23)C=Cc2ccccc21
readout_unit: %
growth inhibition: 2

molecule: COc1ccc(/C=N/Nc2ccccc2)cc1
readout_unit: %
growth inhibition: -12

molecule: COc1cc(OC)c(SSCCCCS(=O)O)c(OC)c1
readout_unit: %
growth inhibition: 1

molecule: CC(=O)c1cc(-c2ccccc2)nc2ccccc12
readout_unit: %
growth inhibition: -29

molecule: COc1ccc(C2C3=C(CCCC3=O)Oc3cc4c(cc32)OCO4)cc1 (configuration not stated)
readout_unit: %
growth inhibition: 5

====

- assay_notes: NCI Yeast Anticancer Drug Screen. Data for the rad50 strain (AID 155);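 note: 0% = growth of vehicle-only cultures of the same strain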
- test_parameters: S. cerevisiae rad50 strain growth inhibition; at 5.0 µM (retest, dose inferred, filed as 0.5); stronger effect = higher value
The panel holds about 79,000 compounds, 15% with a hit somewhere; the sample as a whole holds those more often.
Returns one of Met or Not met; Met when growth inhibition is >= 10%.

compound: CN(C)c1nc(=NCc2ccccc2)ss1
classification: Not met
//
compound: O=C1c2ccccc2-c2ccccc2C(=O)C1(Br)Br
classification: Not met
//
compound: C[CH2][Sn]([CH2]C)([O]C(=O)c1cccc(OC)c1)[O][Sn]([CH2]C)([CH2]C)[O]C(=O)c1cccc(OC)c1
classification: Met
//
compound: COc1ccc(CC2C(=O)NC(C)C(=O)N(C)C3Cc4ccc(cc4)Oc4cc(ccc4O)CC(C(=O)NC(C)C(=O)NC(C)C(=O)N2C)N(C)C3=O)cc1 (stereo unspecified)
classification: Not met
//
compound: CCOC(=O)C1SC(=Nc2ccc(Cl)cc2)N=C1C (stereo unspecified)
classification: Met
//
compound: CCOC(=O)c1ccc([N+](=O)[O-])o1
classification: Not met
//
compound: CCOC(=S)SCc1nc2ccccc2[nH]1
classification: Not met
//
compound: Nc1c(-c2c(Cl)cccc2Cl)[n+]([O-])c2ccccc2[n+]1[O-]
classification: Met
//
compound: Clc1cccc(N2CCN(c3c4c(nc5ccccc35)CCCCC4)CC2)c1
classification: Met
//
compound: O=C(Nc1ccccc1)c1cc(Cl)ccc1O
classification: Not met
//
compound: O=[N+]([O-])c1ccc(-n2ncc3cccnc32)c([N+](=O)[O-])c1
classification: Not met
//
compound: CN(C)CCNc1ccc(O)c2sc3ccccc3c(=O)c12
classification: Not met
//
compound: O=S(=O)(O)c1cc(N=Nc2ccc(O)c(O)c2)ccc1/C=C/c1ccc(N=Nc2ccc(O)c(O)c2)cc1S(=O)(=O)O
classification: Met
//
compound: CCOC(=O)c1csc(/C=C/c2cc(OC)c(OC)c(OC)c2)n1
classification: Not met
//
compound: COc1ccc2c(c1OC)C(C(Cl)(Cl)Cl)N1CCc3cc4c(cc3C1=C2)OCO4 (stereo unspecified)
classification: Met
//
compound: COC1/C=C/OC2(C)Oc3c(C)c(OC(C)=O)c4c(c3C2=O)C(=O)C=C(NC(=O)/C(C)=C\C=C\C(C)C(O)C(C)C(O)C(C)C(OC(C)=O)C1C)C4=O (stereo unspecified)
classification: Not met
//
compound: CCCC(=O)Oc1ccc(-c2ccccc2Br)cc1
classification: Not met
//
compound: CC1CCN(CCC(=O)c2cccc(O)c2)CC1
classification: Not met
//
compound: COC(=O)C12Oc3ccc(-c4ccc5c(c4O)C(O)=C4C(=O)CC(C)C(O)C4(C(=O)OC)O5)c(O)c3C(O)=C1C(=O)CC(C)C2O (stereo unspecified)
classification: Met
//
compound: CN(C)CCC(=O)/C=C/c1ccccc1
classification: Not met
//
compound: COc1ccc(C2Oc3c(cccc3OC)C=C2[N+](=O)[O-])cc1 (stereo unspecified)
classification: Met
